Origin of the recorded values: patent US20190055322A1

Biological target: PcrV of P. aeruginosa strain PA103 (on TTSS-induced bacteria) (Pseudomonas aeruginosa strain PA103)
Test: cell-based or functional assay
readout-kind: Ratio (IC50 Fab 13.37/IC50 Nanobody), A549 cytotoxicity

INSERT INTO measurements (binder, reported_result) VALUES
  ('Nanobody 269 (6B05-40GS-13F07) (VHH) EVQLVESGGGLVQPGGSLRLSCAASGSIFSINTMGWYRQAPGKQRELVSTITSNLVPHYADSVQGRFTISRDNARNTVYLQMNSLKPQDTAHYYCNAWARSSGATPYTNYWGQGTLVTVSSGGGGSGGGGSGGGGSGGGGSGGGGSGGGGSGGGGSGGGGSEVQLVESGGGLVQAGGSLRLSCAASGNTFSTNPMYWYRQAEGKQRELVASISSRGITNYADSVRGRFSISRDNTKDTVYLQMNSLKPEDTAVYYCRLASLSSGTVYWGKGTLVTVSS', '1 fold'),
  ('Nanobody 283 (7E09-40GS-6B05) (VHH) EVQLVESGGGLVQAGGSLRLSCAASGRTFSSYIMGWFRQAPGKAREFVADITWGQRPYYADSVKGRFTISRDNAKNTVYLEMNSLKPEDTAVYYCAADLGVVIREEHAYWGQGTLVTVSSGGGGSGGGGSGGGGSGGGGSGGGGSGGGGSGGGGSGGGGSEVQLVESGGGLVQPGGSLRLSCAASGSIFSINTMGWYRQAPGKQRELVSTITSNLVPHYADSVQGRFTISRDNARNTVYLQMNSLKPQDTAHYYCNAWARSSGATPYTNYWGQGTLVTVSS', '1 fold'),
  ('Nanobody 308 (6B05-40GS-1E11) (VHH) EVQLVESGGGLVQPGGSLRLSCAASGSIFSINTMGWYRQAPGKQRELVSTITSNLVPHYADSVQGRFTISRDNARNTVYLQMNSLKPQDTAHYYCNAWARSSGATPYTNYWGQGTLVTVSSGGGGSGGGGSGGGGSGGGGSGGGGSGGGGSGGGGSGGGGSEVQLVESGGGLVQPGGSLRLSCAASGSTRSVNPMAWFRQAPGRQREWVATISRSGYATYADSVKGRFTISGDNAKSSVYLQMNSLKPEDTAVYYCVTGTYWGQGTLVTVSS', '0.3 fold');

Now look at this one.
[in] Give its Ratio (IC50 Fab 13.37/IC50 Nanobody), A549 cytotoxicity value. Item: Nanobody 258 (13F07-40GS-14E10) (VHH) EVQLVESGGGLVQAGGSLRLSCAASGNTFSTNPMYWYRQAEGKQRELVASISSRGITNYADSVRGRFSISRDNTKDTVYLQMNSLKPEDTAVYYCRLASLSSGTVYWGKGTLVTVSSGGGGSGGGGSGGGGSGGGGSGGGGSGGGGSGGGGSGGGGSEVQLVESGGGLVQPGGSLRLSCAASGRIFSINTMGWYRQAPGKQRELVAGVTINAITNYADSVKGRFTISRDNAKNTVWLQMNSLKPEDTAVYYCHAWARSSGSAPYSQNWGQGTLVTVSS
[out] 1 fold
